Where these numbers come from: the OligoGym collection

- SYSTEM_UNDER_TEST: TMEM63B
- RUN_DESCRIPTION: reporter assay of Huesken 2005; note: test concentration or dose not given here
- SETTINGS: siRNA
Oligonucleotides are given in HELM: sugar(base)linkage, 5' to 3'; d 2'-deoxyribose, r ribose, m 2'-O-methylribose, p phosphate. ss, as = sense and antisense strand
MEASUREMENT_TYPE: normalised inhibition (eCFP-eYFP dual reporter)
Returns: string containing the numeric result and its unit.

Problem: So what's the measured normalised inhibition (eCFP-eYFP dual reporter) for this one? `RNA1{r(A)p.r(U)p.r(G)p.r(C)p.r(G)p.r(U)p.r(A)p.r(G)p.r(A)p.r(C)p.r(A)p.r(C)p.r(A)p.r(C)p.r(C)p.r(U)p.r(C)p.r(C)p.r(A)p.d(T)p.d(T)}|RNA2{r(U)p.r(G)p.r(G)p.r(A)p.r(G)p.r(G)p.r(U)p.r(G)p.r(U)p.r(G)p.r(U)p.r(C)p.r(U)p.r(A)p.r(C)p.r(G)p.r(C)p.r(A)p.r(U)p.d(G)p.d(C)}$$$RNA1{StrandType:ss}|RNA2{StrandType:as}$`
Result: 76.8%

Problem: Can you check `RNA1{r(G)p.r(U)p.r(C)p.r(U)p.r(C)p.r(C)p.r(A)p.r(G)p.r(C)p.r(U)p.r(C)p.r(C)p.r(G)p.r(U)p.r(U)p.r(G)p.r(A)p.r(C)p.r(U)p.d(T)p.d(T)}|RNA2{r(A)p.r(G)p.r(U)p.r(C)p.r(A)p.r(A)p.r(C)p.r(G)p.r(G)p.r(A)p.r(G)p.r(C)p.r(U)p.r(G)p.r(G)p.r(A)p.r(G)p.r(A)p.r(C)p.d(A)p.d(G)}$$$RNA1{StrandType:ss}|RNA2{StrandType:as}$` next?
Result: 69.5%

Problem: Can you check `RNA1{r(C)p.r(G)p.r(A)p.r(U)p.r(G)p.r(C)p.r(A)p.r(G)p.r(A)p.r(G)p.r(A)p.r(G)p.r(G)p.r(A)p.r(A)p.r(G)p.r(A)p.r(A)p.r(G)p.d(T)p.d(T)}|RNA2{r(C)p.r(U)p.r(U)p.r(C)p.r(U)p.r(U)p.r(C)p.r(C)p.r(U)p.r(C)p.r(U)p.r(C)p.r(U)p.r(G)p.r(C)p.r(A)p.r(U)p.r(C)p.r(G)p.d(A)p.d(G)}$$$RNA1{StrandType:ss}|RNA2{StrandType:as}$` next?
Result: 56.4%

---

- SYSTEM_UNDER_TEST: TMEM63B
- RUN_DESCRIPTION: reporter assay of Huesken 2005
- SETTINGS: siRNA
Oligonucleotides are given in HELM: sugar(base)linkage, 5' to 3'; d 2'-deoxyribose, r ribose, m 2'-O-methylribose, p phosphate. ss, as = sense and antisense strand
Exercise: state measured normalised inhibition (eCFP-eYFP dual reporter) for each of the substances provided.
The answer is to be given in %; state only the numeric part.

Problem: So what's the measured normalised inhibition (eCFP-eYFP dual reporter) for this one? `RNA1{r(U)p.r(A)p.r(C)p.r(C)p.r(U)p.r(C)p.r(A)p.r(G)p.r(U)p.r(G)p.r(C)p.r(C)p.r(C)p.r(A)p.r(C)p.r(A)p.r(A)p.r(C)p.r(U)p.d(T)p.d(T)}|RNA2{r(A)p.r(G)p.r(U)p.r(U)p.r(G)p.r(U)p.r(G)p.r(G)p.r(G)p.r(C)p.r(A)p.r(C)p.r(U)p.r(G)p.r(A)p.r(G)p.r(G)p.r(U)p.r(A)p.d(T)p.d(T)}$$$RNA1{StrandType:ss}|RNA2{StrandType:as}$`
Result: 51.3

Problem: Can you check `RNA1{r(U)p.r(G)p.r(G)p.r(U)p.r(G)p.r(C)p.r(U)p.r(U)p.r(C)p.r(U)p.r(C)p.r(G)p.r(G)p.r(C)p.r(C)p.r(C)p.r(U)p.r(C)p.r(C)p.d(T)p.d(T)}|RNA2{r(G)p.r(G)p.r(A)p.r(G)p.r(G)p.r(G)p.r(C)p.r(C)p.r(G)p.r(A)p.r(G)p.r(A)p.r(A)p.r(G)p.r(C)p.r(A)p.r(C)p.r(C)p.r(A)p.d(C)p.d(A)}$$$RNA1{StrandType:ss}|RNA2{StrandType:as}$` next?
Result: 65.1

Problem: Can you check `RNA1{r(G)p.r(U)p.r(A)p.r(U)p.r(C)p.r(U)p.r(G)p.r(C)p.r(U)p.r(G)p.r(C)p.r(U)p.r(C)p.r(A)p.r(C)p.r(C)p.r(G)p.r(U)p.r(C)p.d(T)p.d(T)}|RNA2{r(G)p.r(A)p.r(C)p.r(G)p.r(G)p.r(U)p.r(G)p.r(A)p.r(G)p.r(C)p.r(A)p.r(G)p.r(C)p.r(A)p.r(G)p.r(A)p.r(U)p.r(A)p.r(C)p.d(A)p.d(G)}$$$RNA1{StrandType:ss}|RNA2{StrandType:as}$` next?
Result: 65.4

---

- SYSTEM_UNDER_TEST: UBE2C
- RUN_DESCRIPTION: reporter assay of Huesken 2005
- SETTINGS: siRNA
Oligonucleotides are written 5' to 3', each unit as a sugar letter and its base; * is a phosphorothioate linkage, no mark a phosphodiester; rarer units and linkages stand in square brackets, end groups in braces. Plain capitals give the bases only. d = 2'-deoxy (DNA); r = 2'-OH (RNA)
MEASUREMENT_TYPE: normalised inhibition (eCFP-eYFP dual reporter) (%)
The answer is to be given in %; state only the numeric part.

Problem: So what's the measured normalised inhibition (eCFP-eYFP dual reporter) for this one? sense rUrGrCrCrCrUrGrUrArUrGrArUrGrUrCrArGrGdTdT / antisense rCrCrUrGrArCrArUrCrArUrArCrArGrGrGrCrAdGdA
Result: 50.8

Problem: Can you check sense rArArUrGrCrGrCrCrCrArCrArGrUrGrArArGrUdTdT / antisense rArCrUrUrCrArCrUrGrUrGrGrGrCrGrCrArUrUdGdT next?
Result: 57.6

Problem: Can you check sense rGrCrUrArGrArGrUrUrCrCrCrCrArGrUrGrGrCdTdT / antisense rGrCrCrArCrUrGrGrGrGrArArCrUrCrUrArGrCdGdA next?
Result: 69

Problem: Can you check sense rCrArUrUrCrUrGrCrUrCrUrCrCrArUrCrCrArGdTdT / antisense rCrUrGrGrArUrGrGrArGrArGrCrArGrArArUrGdGdT next?
Result: 79.7

Problem: Can you check sense rArUrGrUrCrArGrGrArCrCrArUrUrCrUrGrCrUdTdT / antisense rArGrCrArGrArArUrGrGrUrCrCrUrGrArCrArUdCdA next?
Result: 56.5

Problem: Can you check sense rGrCrCrCrUrGrCrUrArUrCrArCrCrCrCrArArCdTdT / antisense rGrUrUrGrGrGrGrUrGrArUrArGrCrArGrGrGrCdGdT next?
Result: 63.4

Problem: Can you check sense rCrCrCrCrArGrUrGrGrCrUrArCrCrCrUrUrArCdTdT / antisense rGrUrArArGrGrGrUrArGrCrCrArCrUrGrGrGrGdAdA next?
Result: 67.7

Problem: Can you check sense rCrUrGrArGrGrUrArUrArArGrCrUrCrUrCrGrCdTdT / antisense rGrCrGrArGrArGrCrUrUrArUrArCrCrUrCrArGdGdT next?
Result: 75.8

Problem: Can you check sense rCrArGrUrArUrArUrGrArArGrArCrCrUrGrArGdTdT / antisense rCrUrCrArGrGrUrCrUrUrCrArUrArUrArCrUrGdTdT next?
Result: 82.2

Problem: Can you check sense rArCrArGrUrArUrArUrGrArArGrArCrCrUrGrAdTdT / antisense rUrCrArGrGrUrCrUrUrCrArUrArUrArCrUrGrUdTdC next?
Result: 88.1

Problem: Can you check sense rUrCrCrUrGrArArGrGrArArArArGrUrGrGrUrCdTdT / antisense rGrArCrCrArCrUrUrUrUrCrCrUrUrCrArGrGrAdTdG next?
Result: 71.8

Problem: Can you check sense rGrArArCrArGrUrArUrArUrGrArArGrArCrCrUdTdT / antisense rArGrGrUrCrUrUrCrArUrArUrArCrUrGrUrUrCdCdA next?
Result: 86.9

Problem: Can you check sense rCrArCrCrCrCrArArCrGrUrGrGrArCrArCrCrCdTdT / antisense rGrGrGrUrGrUrCrCrArCrGrUrUrGrGrGrGrUrGdAdT next?
Result: 11.6

Problem: Can you check sense rGrArGrArArCrCrCrArArCrArUrUrGrArUrArGdTdT / antisense rCrUrArUrCrArArUrGrUrUrGrGrGrUrUrCrUrCdCdT next?
Result: 66.3

Problem: Can you check sense rArGrGrUrArUrArArGrCrUrCrUrCrGrCrUrArGdTdT / antisense rCrUrArGrCrGrArGrArGrCrUrUrArUrArCrCrUdCdA next?
Result: 92.4

Problem: Can you check sense rUrArGrUrCrCrCrUrUrGrArArCrArCrArCrArUdTdT / antisense rArUrGrUrGrUrGrUrUrCrArArGrGrGrArCrUrAdTdC next?
Result: 76.1

Problem: Can you check sense rArGrUrUrCrCrUrCrArCrGrCrCrCrUrGrCrUrAdTdT / antisense rUrArGrCrArGrGrGrCrGrUrGrArGrGrArArCrUdTdC next?
Result: 84.4

Problem: Can you check sense rUrGrGrUrCrUrGrCrCrCrUrGrUrArUrGrArUrGdTdT / antisense rCrArUrCrArUrArCrArGrGrGrCrArGrArCrCrAdCdT next?
Result: 28.6

Problem: Can you check sense rGrArArGrUrUrCrCrUrCrArCrGrCrCrCrUrGrCdTdT / antisense rGrCrArGrGrGrCrGrUrGrArGrGrArArCrUrUrCdAdC next?
Result: 40.9

Problem: Can you check sense rGrCrUrArUrCrArCrCrCrCrArArCrGrUrGrGrAdTdT / antisense rUrCrCrArCrGrUrUrGrGrGrGrUrGrArUrArGrCdAdG next?
Result: 89.4

Problem: Can you check sense rGrArArCrArCrArCrArUrGrCrUrGrCrCrGrArGdTdT / antisense rCrUrCrGrGrCrArGrCrArUrGrUrGrUrGrUrUrCdAdA next?
Result: 89.6

Problem: Can you check sense rArGrUrGrGrUrCrUrGrCrCrCrUrGrUrArUrGrAdTdT / antisense rUrCrArUrArCrArGrGrGrCrArGrArCrCrArCrUdTdT next?
Result: 61.1

Problem: Can you check sense rCrArGrArGrCrCrUrUrCrUrArGrGrArGrArArCdTdT / antisense rGrUrUrCrUrCrCrUrArGrArArGrGrCrUrCrUrGdGdA next?
Result: 75.5

Problem: Can you check sense rCrCrCrUrGrCrUrArUrCrArCrCrCrCrArArCrGdTdT / antisense rCrGrUrUrGrGrGrGrUrGrArUrArGrCrArGrGrGdCdG next?
Result: 53.1
